Value source: patent US20230139171A1

Molecular target: UniProtKB Q9NR96
Sequence (Q9NR96 26-1032): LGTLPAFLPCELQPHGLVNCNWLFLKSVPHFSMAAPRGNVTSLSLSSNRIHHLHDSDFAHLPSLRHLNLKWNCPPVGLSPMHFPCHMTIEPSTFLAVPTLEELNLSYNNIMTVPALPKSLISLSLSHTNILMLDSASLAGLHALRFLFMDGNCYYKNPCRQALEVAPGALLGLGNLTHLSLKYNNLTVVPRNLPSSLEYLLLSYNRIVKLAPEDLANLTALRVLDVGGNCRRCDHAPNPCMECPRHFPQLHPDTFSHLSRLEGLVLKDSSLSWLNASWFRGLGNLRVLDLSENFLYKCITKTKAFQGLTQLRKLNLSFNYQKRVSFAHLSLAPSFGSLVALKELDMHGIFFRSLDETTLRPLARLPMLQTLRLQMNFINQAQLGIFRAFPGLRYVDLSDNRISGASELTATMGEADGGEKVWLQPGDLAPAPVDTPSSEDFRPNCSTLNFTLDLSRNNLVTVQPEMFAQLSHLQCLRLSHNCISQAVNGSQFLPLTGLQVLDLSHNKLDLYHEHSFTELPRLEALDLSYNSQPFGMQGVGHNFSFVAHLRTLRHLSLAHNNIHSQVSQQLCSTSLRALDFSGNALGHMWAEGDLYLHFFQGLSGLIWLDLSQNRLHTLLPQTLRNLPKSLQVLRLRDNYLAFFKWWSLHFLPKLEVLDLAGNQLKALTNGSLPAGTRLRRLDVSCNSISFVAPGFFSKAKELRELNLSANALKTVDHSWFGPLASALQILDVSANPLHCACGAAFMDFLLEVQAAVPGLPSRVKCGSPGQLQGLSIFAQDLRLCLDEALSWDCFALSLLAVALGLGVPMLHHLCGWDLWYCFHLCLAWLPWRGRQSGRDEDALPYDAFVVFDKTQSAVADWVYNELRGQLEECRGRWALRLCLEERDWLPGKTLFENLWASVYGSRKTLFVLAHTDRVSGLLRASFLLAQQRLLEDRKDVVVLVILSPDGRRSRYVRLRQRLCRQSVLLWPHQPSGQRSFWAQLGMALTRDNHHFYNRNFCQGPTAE
Experiment: TLR9 inhibition reporter assay (HEK-Blue cells, SEAP reporter, ODN2006 stimulation)
Conditions: HEK-Blue cells overexpressing human TLR9, SEAP reporter, ODN2006 5 nM
measured.parameter: IC50 (µM)

Please review the following examples before continuing.
Quick note, IC50 for CC(C)c1c(-c2cn(C)c3ncccc23)[nH]c2sc(C3CCC(NCC4(C)COC4)CC3)nc12 (single isomer, unassigned) [Example 172] landed at 14.8

Quick note, IC50 for Cc1c(-c2[nH]c3sc(N4CCN(CC5CC5)C[C@@H]4C)nc3c2C(C)C)cn2ncnc2c1C landed at 24.5

Quick note, IC50 for COc1cc(-c2[nH]c3sc(C4CCC(NC5CCN(C(C)C)CC5)CC4)nc3c2C(C)C)cn2ncnc12 (single isomer, unassigned) [Example 167] landed at 1.71

Quick note, IC50 for Cc1c(-c2[nH]c3sc(C4CCC(N5CCOCC5)CC4)nc3c2C(C)C)cn2ncnc2c1C (single isomer, unassigned) [Example 212] landed at 7.39

Quick note, IC50 for COc1cc(-c2[nH]c3sc(C4CCC(N(C)CC(=O)N(C)C)CC4)nc3c2C(C)C)cn2ncnc12 (single isomer, unassigned) [Example 163] landed at 9.4

Quick note, IC50 for COC(C)(C)CNC1CCC(c2nc3c(C(C)C)c(-c4cn(C)c(=O)c(C)c4C)[nH]c3s2)CC1 (single isomer, unassigned) [Example 244] landed at 25.3

Quick note, IC50 for COC(C)(C)CNC1CCC(c2nc3c(C(C)C)c(-c4cn(C)c(=O)c(C)c4C)[nH]c3s2)CC1 (single isomer, unassigned) [Example 243] landed at 29.8

Quick note, IC50 for CC(C)c1c(-c2cn(C)c3ncccc23)[nH]c2sc(C3CCC(NC45CC(C4)C5)CC3)nc12 (single isomer, unassigned) [Example 176] landed at 9.58

Quick note, IC50 for CNC(=O)CNC1CCC(c2nc3c(C(C)C)c(-c4cn5ncnc5c(C)c4C)[nH]c3s2)CC1 (single isomer, unassigned) [Example 208] landed at 20

Quick note, IC50 for Cc1cc(-c2[nH]c3nc(C4CCNCC4)sc3c2C(C)C)cn2ncnc12 landed at 3.1

I = Cc1cc2ncnn2cc1-c1[nH]c2sc(C3CCC(N4CCCOCC4)CC3)nc2c1C(C)C (single isomer, unassigned) [Example 147]
II = Cc1cc(-c2[nH]c3sc(C4CCNCC4)nc3c2C(C)C)cc(C)n1
Q: // compare measured IC50 between I and II ; output the lower one // respond with label for picked entry
Ans: II
(II: 0.287 µM, I: 18.8 µM)

I = COc1cc(-c2[nH]c3sc(C4CCC(N(C)CC(=O)N(C)C)CC4)nc3c2C(C)C)cn2ncnc12 (single isomer, unassigned) [Example 162]
II = Cc1c(-c2[nH]c3sc(C4CCC(N5CCC6(CC5)COC6)CC4)nc3c2C(C)C)cn2ncnc2c1C (single isomer, unassigned) [Example 238]
III = Cc1c(-c2[nH]c3sc(C4CCC(NC5COC5)CC4)nc3c2C(C)C)cn2ncnc2c1C (single isomer, unassigned) [Example 184]
Q: Rank the items in ascending order with respect to IC50. Provide the labels, sequenced as the question asks.
Ans: II, III, I

a = COc1cc(-c2[nH]c3sc(C4CCC(N(C)CCS(C)(=O)=O)CC4)nc3c2C(C)C)cn2ncnc12 (single isomer, unassigned) [Example 164]
b = COc1cc(-c2[nH]c3sc(C4CCC(NC56CC(C5)C6)CC4)nc3c2C(C)C)cn2ncnc12 (single isomer, unassigned) [Example 169]
Q: # returns the entry with the larger IC50; inputs a and b // respond with label for picked entry
Ans: a
(a: 15.6 µM, b: 9.81 µM)

I = Cc1c(-c2[nH]c3sc(C4CCN(CC(C)C)CC4)nc3c2C(C)C)cn2ncnc2c1C
II = Cc1c(-c2[nH]c3sc(C4CCC(N5CC(F)(F)C5)CC4)nc3c2C(C)C)cn2ncnc2c1C (single isomer, unassigned) [Example 218]
Q: // compare measured IC50 between I and II ; output the lower one // respond with label for picked entry
Ans: I
